From: patent US20230372448A1

- assayedSystem: human GLP-1 receptor (human, UniProt P43220 24-463)
- test: cell-based or functional assay
Positions of bridges follow the written chain, without caps; N, C: chain ends. Non-standard residues stand in square brackets, D forms with d. No end group written: not given here. *: point of attachment. Acetyl(2-(4-imidazolyl)) = O=C(Cc1c[nH]cn1)*; Aib = CC(C)(N)C(=O)O
Reported In vitro activity (%) compared with native peptide: vs GLP-1 values are given for each entry in this list.
A number alone suffices; assume %.

Look over these answered cases.
binder: H[Aib]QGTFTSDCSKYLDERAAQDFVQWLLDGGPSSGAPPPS (not fully specified) [triple agonist of SEQ ID NO: 25]
readoutValue: 82.6
//
binder: {Acetyl(2-(4-imidazolyl))}-[Aib]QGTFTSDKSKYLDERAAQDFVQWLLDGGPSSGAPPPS (not fully specified) [triple agonist of SEQ ID NO: 62]
readoutValue: 5.2
//
binder: H[Aib]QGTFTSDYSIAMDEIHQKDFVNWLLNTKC (bridge 16-20; not fully specified) [triple agonist of SEQ ID NO: 35]
readoutValue: 7.5

// In vitro activity (%) compared with native peptide: vs GLP-1 lookup, key: Y[Aib]QGTFTSDYSKALDEKAAKEFVQWLLDQHPSSGQPPPSC (bridge 16-20) [triple agonist of SEQ ID NO: 100]
42.2

Request the reported In vitro activity (%) compared with native peptide: vs GLP-1 associated with {Acetyl(2-(4-imidazolyl))}-[Aib]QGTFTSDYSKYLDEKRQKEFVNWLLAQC (bridge 15-19; not fully specified) [triple agonist of SEQ ID NO: 86]
28.4

Requested read-out: In vitro activity (%) compared with native peptide: vs GLP-1. Entry: H[Aib]QGTFTSDVSSYLLGQQQKEFIAWLVKGC (not fully specified) [triple agonist of SEQ ID NO: 4]
8.5

Can you share its In vitro activity (%) compared with native peptide: vs GLP-1? I mean this binder: H[Aib]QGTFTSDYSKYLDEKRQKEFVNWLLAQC (bridge 16-20) [triple agonist of SEQ ID NO: 56]
57.9
